assay: HEK293 Cellular Growth Inhibition Assay (CellTiter-Glo); format: cell-based; conditions: human, HEK293 cells, 7 days of incubation
Entries and their CC50 at 7 days values follow.
attribute_measured: CC50 at 7 days

>>> print(df.to_string())
                                entry_smiles  attribute_measured  endpoint_value
 0  CCS(=O)(=O)N[C@H]1CC[C@H](CN2CCC3(CC2)CN(c2ncnc4ccc(CC(F)(F)F)cc24)C3)CC1      CC50 at 7 days      5 to 15 µM
 1  O=C1COc2cc(CN3CCC4(CC3)CN(c3ncnc5ccc(CC(F)(F)F)cc35)C4)ccc2N1      CC50 at 7 days     15 to 30 µM
 2  CCS(=O)(=O)N[C@H]1CC[C@H](CN2CCC3(CC2)CN(c2ncnc4ccc(CCc5cccc(F)c5)cc24)C3)CC1      CC50 at 7 days      5 to 15 µM
 3  CCS(=O)(=O)N[C@H]1CC[C@H](CN2CCC3(CC2)CN(c2ncnc4ccc(CCc5cccnc5)cc24)C3)CC1      CC50 at 7 days     15 to 30 µM
 4  CCS(=O)(=O)Nc1ccc(CN2CCC3(CC2)CN(c2ncnc4ccc(CC(F)(F)F)cc24)C3)cc1      CC50 at 7 days      5 to 15 µM
 5  CCS(=O)(=O)Nc1ccc(CN2CCC3(CC2)CN(c2ncnc4cc(CC(F)(F)F)ccc24)C3)cc1      CC50 at 7 days     15 to 30 µM
 6  FC(F)(F)Cc1ccc2ncnc(N3CC4(CCN(Cc5ccc6cc[nH]c6c5)CC4)C3)c2c1      CC50 at 7 days          ≤ 5 µM
 7  CCS(=O)(=O)N[C@H]1CC[C@H](CN2CCC3(CC2)CN(c2ncnc4ncc(CC(F)(F)F)cc24)C3)CC1      CC50 at 7 days         > 50 µM
 8  CCS(=O)(=O)N[C@H]1CC[C@H](Cn2cc(CNc3ncnc4ccc(CC(F)(F)F)cc34)nn2)CC1      CC50 at 7 days     30 to 50 µM
 9  CCS(=O)(=O)Nc1ccc(CN2CC3(CCN(c4ncnc5ccc(CC(F)(F)F)cc45)CC3)C2)cc1      CC50 at 7 days     15 to 30 µM
10  Nc1ccc(CN2CCC3(CC2)CN(c2ncnc4ccc(CC(F)(F)F)cc24)C3)cc1C(=O)NCCN1CCOCC1      CC50 at 7 days      5 to 15 µM
11  CCS(=O)(=O)Nc1ccc(CN2CCC3(CC2)CN(c2ncnc4ccc(CCc5ccncc5)cc24)C3)cc1      CC50 at 7 days     30 to 50 µM
12  CCS(=O)(=O)Nc1ccc(CN2CCC3(CC2)CCN(c2ncnc4ccc(CC(F)(F)F)cc24)CC3)cc1      CC50 at 7 days      5 to 15 µM
13  CCS(=O)(=O)N[C@H]1CC[C@H](CN2CCC3(CC2)CN(c2ncnc4ccc(CCc5ccncc5)cc24)C3)CC1      CC50 at 7 days     30 to 50 µM
14  CCS(=O)(=O)Nc1ccc(CN2CCC(Nc3ncnc4ccc(CC(F)(F)F)cc34)CC2)cc1      CC50 at 7 days     15 to 30 µM
